The reported measurements were obtained from patent US20240041827A1.

# System: human visceral preadipocytes
# protocol: cells
# experimentalConditions: Homo sapiens, 6 h, read-out: IC50 of RZL-12 in the presence of Collagenase, Collagenase 3 μM; 6 h incubation
pIC50: −log10 of the molar value.
observedProperty: pIC50

chemicalString: C[N+](C)(C)CCCCCn1c2ccc(Br)cc2c2cc(Br)ccc21.[Cl-]
result: ~4.52

====

# System: human visceral preadipocytes
# protocol: cells
# experimentalConditions: Homo sapiens, 2 h, read-out: IC50 of RZL-12 in the presence of Collagenase, Collagenase 1 μM; 2 h incubation
pIC50: −log10 of the molar value.
observedProperty: pIC50

chemicalString: C[N+](C)(C)CCCCCn1c2ccc(Br)cc2c2cc(Br)ccc21.[Cl-]
quantitativeReadout: 4.49

====

# System: human visceral preadipocytes
# protocol: cells
# experimentalConditions: Homo sapiens, 6 h, read-out: IC50 of RZL-12 in the presence of Collagenase, Collagenase 0; 6 h incubation
pIC50: −log10 of the molar value.
observedProperty: pIC50

chemicalString: C[N+](C)(C)CCCCCn1c2ccc(Br)cc2c2cc(Br)ccc21.[Cl-]
observedProperty: pIC50
quantitativeReadout: 4.46

====

# System: human visceral preadipocytes
# protocol: cells
# experimentalConditions: Homo sapiens, 24 h, read-out: IC50 of RZL-12 in the presence of Collagenase, Collagenase 0.3 μM; 24 h incubation
observedProperty: IC50 (µM)

molecule: C[N+](C)(C)CCCCCn1c2ccc(Br)cc2c2cc(Br)ccc21.[Cl-] [RZL-012]
observedProperty: IC50
quantitativeReadout: 38.5

====

# Tested on: human visceral preadipocytes
# protocol: cells
# experimentalConditions: Homo sapiens, 2 h, read-out: IC50 of RZL-12 in the presence of Collagenase, Collagenase 3 μM; 2 h incubation
observedProperty: IC50

chemicalString: C[N+](C)(C)CCCCCn1c2ccc(Br)cc2c2cc(Br)ccc21.[Cl-]
targetDesc: human visceral preadipocytes
result: ~31.2 µM

====

# protocol: in vitro
observedProperty: IC50

chemicalString: C[N+](C)(C)CCCCCn1c2ccc(Br)cc2c2cc(Br)ccc21.[Cl-]
observedProperty: IC50
result: ~30 µM
